Listed here are molecules together with their documented GI50.
# System: OVCAR-8
Give the value, in units of nM, as a plain number.

The following molecules have reported results that may help.
COc1ccc(S(=O)(=O)Nc2c(/C=C\c3cc(OC)c(OC)c(OC)c3)ccc(OC)c2O)cc1 [17a] | 46.6
COc1ccc(S(=O)(=O)Nc2cc(/C=C\c3cc(OC)c(OC)c(OC)c3)cc(OC)c2OC)cc1 [13a] | 45.9
COc1cc(/C=C\c2cc(OC)c(OC)c(OC)c2)cc(NS(=O)(=O)c2ccc(Cl)cc2)c1OC [13c] | 600
COc1ccc(S(=O)(=O)Nc2cc(/C=C\c3cc(OC)c(OC)c(OC)c3)ccc2OC)cc1 [12a] | 276

# next molecule below
Look up GI50 for this molecule: COc1ccc(/C=C\c2cc(OC)c(OC)c(OC)c2)c(NS(=O)(=O)c2ccc(Cl)cc2)c1O [17c] 294
